The reported numbers originate from ChEMBL document CHEMBL1201862.

test system: MDA-MB-231; assay: NCI tumour cell line growth inhibition, 48 h
Active and inactive are the calls of the source. No stated cut-off is given here; in the data, active = GI50 up to about 1.1 µM and inactive = higher.
Entries and their GI50
Measurement Label: GI50

In [3]: df
Out[3]:
                                    compound  measurement_label  observed_measurement
 0  CC1S/C(=N/c2nnc(-c3ccccc3)o2)NC1=O (stereo unspecified)               GI50    43.3 µM (inactive)
 1  Cc1[nH]c2ccccc2c1-c1cc(-c2cc(-c3c(C)[nH]c4ccccc34)nc(N)n2)nc(N)n1               GI50   > 100 µM (inactive)
 2  CCOC1(OCC)N=C(N)C2(C#N)C3(C(=O)N(C(C)C)N=C3C)C12C#N (stereo unspecified)               GI50   > 100 µM (inactive)
 3                [O-][n+]1onc2c1-c1nonc1CC2               GI50      27 µM (inactive)
 4  CC1(C)OCC2OC(n3cnc4c(N)nc(Cl)nc43)C(OS(C)(=O)=O)C2O1 (stereo unspecified)               GI50   > 100 µM (inactive)
 5  CCC(NC(C)c1ccccc1)C(=O)c1ccc(OCc2ccccc2)c(OCc2ccccc2)c1 (stereo unspecified)               GI50   > 100 µM (inactive)
 6   Cc1[nH]c(-c2ccccc2)c2nc(N(C)C)oc(=O)c12               GI50   > 100 µM (inactive)
 7                  Cc1nc2ccc(Cl)cc2c2c1CCS2               GI50    49.2 µM (inactive)
 8          NC(=O)c1cc2ccccc2o/c1=N/c1ccccc1               GI50   > 100 µM (inactive)
 9  CC(C)(C)C(O)CC(O)(C(F)(F)F)C(F)(F)F (stereo unspecified)               GI50   > 100 µM (inactive)
10       O=Cc1ccc(-c2nccc3c2[nH]c2ccccc23)o1               GI50  > 85.1 µM (inactive)

----------
tested on: 786-0; test: NCI tumour cell line growth inhibition, 48 h
The source made the active and inactive calls. Cut-off read from the data, not from the text of the source: active = GI50 up to about 1.1 µM and inactive = higher.
Here the recorded GI50 is given for each entry.
Measurement Label: GI50

>>> print(df.to_string())
                                   molecule  observed_measurement
0            N#Cc1c(Cl)cc(Cl)n2c1nc1ccccc12    2.86 µM (inactive)
1      CCOC(=O)Cn1c(=O)[nH]c(=O)c2[nH]cnc21   > 100 µM (inactive)
2  CCOC1CN(C)/C(=N\c2cccc3ccccc23)S1 (stereo not given)    > 10 µM (inactive)
3  OC[C@H]1O[C@@H](Oc2cc(O)cc(/C=C/c3ccc(O)cc3)c2)[C@H](O)[C@@H](O)[C@@H]1O   > 100 µM (inactive)
4  CC[C@]1(Cc2ccc(OC)c(OC)c2)C=[N+]([O-])O[C@H](OC2CCCC2(c2ccccc2)c2ccccc2)[C@@H]1OC(=O)C(C)(C)C (stereo not given in full)    2.05 µM (inactive)
5  CC(C)(C)C(O)CC(O)(C(F)(F)F)C(F)(F)F (stereo not given)   > 100 µM (inactive)
6  CC(=O)OCC1OC(SC2=NC(=O)/C(=C/c3ccccc3)S2)C(OC(C)=O)C(OC(C)=O)C1OC(C)=O (stereo not given)    16.9 µM (inactive)
7                 COc1ccc2c(C)cc(=O)oc2c1OC   > 100 µM (inactive)
8  COc1ccc(C2C3=CONC3CC3CCCCC32)cc1 (stereo not given)    46.7 µM (inactive)
9  Cc1c(NC(=O)C(C)(C)Br)c(=O)oc2c(C)c3occc(=O)c3cc12    53.7 µM (inactive)
